I'd be grateful if you could share measured melting point for these entries.

Sample Cc1c(S(=O)(=O)Nc2ccc3[nH]cc(CCN4CCCC4)c3c2)sc2ccc(Cl)cc12 — what was its melting point?
201 to 203 °C

Similarly, Cc1cc2cc(NS(=O)(=O)c3ccc(Oc4ccccc4)cc3)ccc2n1CCN(C)C [Example 38e] ?
147 to 149 °C

Similarly, CCN(CC)CCn1ccc2cc(NS(=O)(=O)c3c(Cl)nc4sccn34)ccc21 [Example 27e] ?
68 to 70 °C

Similarly, Cl.O=C1c2ccccc2-c2cc(NC(=O)C(c3ccccc3)N3CCC(N4C(=O)OCc5ccccc54)CC3)ccc21 (centres unmarked) ?
247 to 249 °C

Similarly, CN(C)CCn1ccc2cc(NS(=O)(=O)c3ccc(Oc4ccccc4)cc3)ccc21 [Example 7e] ?
138 to 140 °C

Reference source for all entries: patent US20070059364A1
